system: carrageenin oedema in the rat paw; assay: Suppression of carrageenin oedema in the rat paw (Siegmund); type: in vivo; details: 100 mg/kg p.o.; 3 h p.a.
Counter-ions that a name gives are not always drawn.
READOUT TYPE: Suppression of carrageenin oedema in the paw (antiphlogistic activity)

// worked examples, Suppression of carrageenin oedema in the paw (antiphlogistic activity) included
[
  {
    "MOLECULE": "CCCCCC(C)NCc1c(C)cc(C)cc1C (single isomer, unassigned) [compound 4]",
    "TARGET OR SYSTEM": "carrageenin oedema in the rat paw",
    "RECORDED VALUE": "14%"
  },
  {
    "MOLECULE": "CCCCCC(C)NCc1ccc([N+](=O)[O-])cc1 (centres unmarked)",
    "TARGET OR SYSTEM": "carrageenin oedema in the rat paw",
    "RECORDED VALUE": "59%"
  },
  {
    "MOLECULE": "CCCCCC(C)NCc1c(C)cc(C)cc1C (centres unmarked) [Serial No. 2, hydrochloride]",
    "TARGET OR SYSTEM": "carrageenin oedema in the rat paw",
    "RECORDED VALUE": "46%"
  }
]

### Prompt Which Suppression of carrageenin oedema in the paw (antiphlogistic activity) value belongs to CCCCCCC(C)NCc1c(C)cc(C)cc1C (centres unmarked) ?
### Response 39%

### Prompt Which Suppression of carrageenin oedema in the paw (antiphlogistic activity) value belongs to CCCCCC(C)NCc1c(C)cc(C)cc1C (single isomer, unassigned) [compound 3] ?
### Response 11%

---

Examples of molecules with documented Relative change in coronary blood flow follow.
system: isolated guinea-pig heart; test: Relative coronary blood-flow change in isolated guinea-pig heart (Langendorff); conditions: 100 μg (first figure where two are given)

// worked examples, Relative change in coronary blood flow included
[
  {
    "MOLECULE": "CCCCCCNCc1c(C)cc(C)cc1C",
    "Relative change in coronary blood flow": "+85"
  },
  {
    "MOLECULE": "CCCCCC(C)N(Cc1c(C)cc(C)cc1C)CP(C)(C)=O (stereo not shown)",
    "Relative change in coronary blood flow": "+232"
  },
  {
    "MOLECULE": "CC(N)CCCC(C)(C)O (stereo not shown) [Heptaminol, 6-amino-2-methylheptane-2-ol, reference compound]",
    "Relative change in coronary blood flow": 0
  }
]

### Prompt Which Relative change in coronary blood flow value belongs to CCCCCC(C)NCc1c(C)cc(C)cc1C (single isomer, unassigned) [compound 4] ?
### Response +125

---

experiment: Toxicity in the mouse (Litchfield and Wilcoxon); assay type: in vivo; settings: mouse, in vivo, ip
Where a name gives a salt, the structure may show the parent alone.
Examples of compounds with documented LD50 follow.

// worked examples, LD50 included
[
  {
    "COMPOUND": "CCCCCC(C)NCc1c(C)cc(C)cc1C (centres unmarked) [Serial No. 2, hydrochloride]",
    "LD50": "114 mg/kg"
  },
  {
    "COMPOUND": "CCCCCCC(C)NCc1c(C)cc(C)cc1C (centres unmarked) [Serial No. 26]",
    "LD50": "50 to 100 mg/kg"
  },
  {
    "COMPOUND": "CCCCCC(C)NCc1ccccc1Br (centres unmarked) [compound 12]",
    "LD50": "100 to 250 mg/kg"
  }
]

### Prompt Which LD50 value belongs to CCCCCC(C)NCc1cccc(Br)c1 (centres unmarked) [compound 11] ?
### Response 100 to 250 mg/kg

### Prompt Which LD50 value belongs to CCCCCCCNCc1c(C)cc(C)cc1C [compound 16] ?
### Response 50 to 100 mg/kg

### Prompt Which LD50 value belongs to CCCCCCOCCCNCc1c(C)cc(C)cc1C [compound 22] ?
### Response 25 to 50 mg/kg

### Prompt Which LD50 value belongs to CCCCCC(C)NCc1ccccc1Cl (centres unmarked) [compound 9] ?
### Response 100 to 250 mg/kg

### Prompt Which LD50 value belongs to COCCCNCc1c(C)cc(C)cc1C [compound 20] ?
### Response 50 to 100 mg/kg

### Prompt Which LD50 value belongs to CCCCCCCCCNCc1c(C)cc(C)cc1C [compound 18] ?
### Response 50 to 100 mg/kg
